Reference source: patent US20170121344A1

- Test system: Dengue-2 (Strain New Guinea C)
- Procedure Summary: Viral yield assay against Dengue-2 in Vero cells
- Format: cell-based, Dengue virus
- Test Conditions: Vero cells; read-out: Activity (EC50 in μM) DENV-2
Quantity Measured: EC50

CC(=O)N(CCN)c1c(C(=O)Nc2nnc(-c3ccccc3)s2)sc2nc3c(cc12)CCCCC3
< 5 µM

###

- System: Dengue-2 (Strain New Guinea C)
- Procedure Summary: Viral yield assay against Dengue-2 in Vero cells
- Format: cell-based, Dengue virus
- Test Conditions: Dengue virus; Vero cells, MOI 0.1, harvested 48 hours post infection; read-out: Activity (EC50 class) against Dengue-2 Virus in Vero cells
Quantity Measured: EC50

Cc1cccc(NC(=O)c2sc3nc(N)c(C#N)c(-c4ccc(C(C)C)cc4)c3c2N)c1C [Compound 143]
> 25 µM
CCCc1ccc2c(N)c(C(=O)Nc3nc(C(F)(F)F)ccc3Cl)sc2n1 [Compound 73]
5 to 25 µM
COc1ccccc1NC(=O)c1sc2nc(N3CCOCC3)c3c(c2c1N)CC(C)(C)OC3 [Compound 247]
> 25 µM
CCOC(=O)c1ccc(NC(=O)c2sc3nc4c(cc3c2N)CN(C(C)C)CC4)cc1 [Compound 25]
< 5 µM
COc1ccc(Cl)cc1NC(=O)c1sc2nc3c(cc2c1N)CN(C)CC3 [Compound 37]
< 5 µM
COCc1cc(C)nc2sc(C(=O)Nc3ccc(C)c(Cl)c3)c(N)c12 [Compound 229]
> 25 µM
Nc1c(C(=O)N2CCOCC2)sc2nc(-c3ccccc3)cc(C(F)(F)F)c12 [Compound 89]
5 to 25 µM
CCN1CCCC(NC(=O)c2sc3nc(C)cc(COC)c3c2N)C1 (stereo not drawn) [Compound 147]
> 25 µM
CC1(C)Cc2c(c(N3CCOCC3)nc3sc(C(=O)N4CCOCC4)c(N)c23)CO1 [Compound 234]
> 25 µM
CN1CCc2nc3sc(C(=O)Nc4nc5ccccc5s4)c(N)c3cc2C1 [Compound 62]
< 5 µM
Cc1csc(NC(=O)c2sc3nc4c(cc3c2N)CN(C)CC4)n1 [Compound 39]
< 5 µM
COc1ccc(-c2cc(-c3ccccc3)nc3sc(C(=O)Nc4ccccc4)c(N)c23)cc1 [Compound 126]
> 25 µM
Cc1cc(C)c2c(n1)sc1c(=O)[nH]c(C)nc12 [Compound 153]
> 25 µM
NC(=O)c1sc2nc3c(c(-c4ccco4)c2c1N)CCCC3 [Compound 11]
< 5 µM
COc1ccc(NC(=O)c2sc3nc4c(c(-c5ccccc5)c3c2N)CN(C)CC4)cc1 [Compound 50]
< 5 µM
COC(=O)c1ccccc1NC(=O)c1sc2nc(N)c(C#N)cc2c1N [Compound 133]
> 25 µM
CCOC(=O)c1cc2c(N)c(C(=O)Nc3cccc(C(F)(F)F)c3)sc2nc1N [Compound 75]
5 to 25 µM
CC(=O)Nc1ccc(NC(=O)c2sc3nc4c(cc3c2N)CCCC4)cc1 [Compound 204]
> 25 µM

###

- Tested on: Dengue-2 (Strain New Guinea C)
- Procedure Summary: Viral yield assay against Dengue-2 in Vero cells
- Type: cell-based, Dengue virus
- Test Conditions: Dengue virus; Vero cells, MOI 0.1, harvested 48 hours post infection; read-out: Activity (EC50 class) against Dengue-2 Virus in Vero cells
Quantity Measured: EC50

Cc1cc(C(F)(F)F)c2c(N)c(C(=O)Nc3ccc(I)cc3C)sc2n1
> 25 µM
CCN(CC)c1ccc(NC(=O)c2sc3nc4c(cc3c2N)CN(C)CC4)cc1
> 25 µM
Cc1nc2c(sc3nc4c(cc32)COC(C)(C)C4)c(=O)n1CC1CCCO1 (stereo not drawn)
> 25 µM
Cc1cc(C)c2c(N)c(C(=O)N3CCOCC3)sc2n1
> 25 µM
Cc1cc(C)c2c(N)c(C(=O)Nc3cccc4cccnc34)sc2n1
> 25 µM
CN1CCc2nc3sc(C(=O)NCc4ccc(F)cc4)c(N)c3cc2C1
< 5 µM
C=CCc1c(C)nc2sc(C(=O)Nc3ccc([N+](=O)[O-])cc3)c(N)c2c1C
> 25 µM
Cc1ccc(NC(=O)c2sc3nc(C)cc(C(F)(F)F)c3c2N)cc1
> 25 µM
Cc1cc(C)c2c(N)c(C(=O)NC34CC5CC(CC(C5)C3)C4)sc2n1
> 25 µM
CN1CCc2nc3sc(C(=O)Nc4ccccc4)c(N)c3c(-c3ccccc3)c2C1
< 5 µM
COc1ccc(NC(=O)c2sc3nc4c(c(-c5cccs5)c3c2N)CN(C)CC4)cc1
< 5 µM
CN1CCc2nc3sc(C(=O)Nc4c(F)cccc4F)c(N)c3cc2C1
> 25 µM
CC1(C)CC(=O)c2cc3c(N)c(C(=O)Nc4ccc([N+](=O)[O-])cc4)sc3nc2C1
> 25 µM
Cc1cccc(C)c1NC(=O)c1sc2nc(N)c(C#N)cc2c1N
> 25 µM
CN1CCc2nc3sc(C(=O)Nc4ccc(C(C)(C)C)cc4)c(N)c3cc2C1
< 5 µM
C=C(C)Cn1cnc2c(sc3nc4c(cc32)COC(C)(C)C4)c1=O
> 25 µM
COc1ccc(-c2ccc3c(N)c(C(=O)NC(C)C)sc3n2)cc1
5 to 25 µM
CCN(CC)C(=O)c1sc2nc(-c3cccs3)cc(C(F)(F)F)c2c1N
5 to 25 µM
